assay.name: inhibition of 3D7 malaria parasite growth – strain 3D7 (AID 2306);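 also: 0% = DMSO wells and 100% = chloroquine plus artemisinin control wells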
test.parameters: P. falciparum 3D7 erythrocytic growth, LDH absorbance, 72 h; at 2 µM; stronger effect = higher value
metric.name: growth inhibition (%)

{"compound": "O=C(CCC(=O)c1ccc2c3c(cccc13)CC2)NC1CCC(CN2CCC(c3c[nH]c4ccccc34)CC2)CC1 (configuration not stated)", "metric.name": "growth inhibition", "reading": 96}
{"compound": "O=C1c2ccccc2CCC1CCN1CC=C(c2c[nH]c3ccccc23)CC1 (configuration not stated)", "metric.name": "growth inhibition", "reading": 89}
{"compound": "CC[C@H]1CN2CC[C@@H]1C[C@H]2[C@H](O)c1cc(N2CCC(c3ccccc3)CC2)nc2ccc(OC)cc12", "metric.name": "growth inhibition", "reading": 99}
{"compound": "O=C(/C=C/c1ccc(Cl)c(Cl)c1)NCCC1CCC(N2CCC(c3c[nH]c4ccc(O)cc34)CC2)CC1 (configuration not stated)", "metric.name": "growth inhibition", "reading": 102}
{"compound": "COC(=O)c1ccc(CC(C)NCC(O)c2ccccc2Cl)cc1 (configuration not stated)", "metric.name": "growth inhibition", "reading": 94}
{"compound": "Cc1cc(C)c(CC(C)NCC(O)c2cccc(C(F)(F)F)c2)c(C)c1 (configuration not stated)", "metric.name": "growth inhibition", "reading": 100}
{"compound": "Oc1ccc(CN2CCN(CCOC(c3ccccc3)c3ccc(Cl)cc3)CC2)cc1Cl (configuration not stated)", "metric.name": "growth inhibition", "reading": 98}
{"compound": "Cc1ccc(C)c(N2CCN(Cc3ccccc3O)CC2)c1", "metric.name": "growth inhibition", "reading": 100}
{"compound": "S=C(NCC1CCCCC1)NC1CCC(CN2CCC(c3c[nH]c4ccccc34)CC2)CC1 (configuration not stated)", "metric.name": "growth inhibition", "reading": 88}
{"compound": "N=c1c2c(n(Cc3ccc(Cl)cc3Cl)c3c1CCC3)CCCC2", "metric.name": "growth inhibition", "reading": 94}
{"compound": "CN(C)c1cccc(NC(=O)NC2N=C(c3ccccc3)c3ccccc3N(CC(=O)N(C)c3ccccc3)C2=O)c1 (configuration not stated)", "metric.name": "growth inhibition", "reading": 99}
{"compound": "COc1cccc(CCNC(C)Cc2ccc(OCCCCOc3ccccc3)cc2)c1 (configuration not stated)", "metric.name": "growth inhibition", "reading": 97}
{"compound": "COc1ccc(C[C@H](C)NC[C@H](O)c2cccc(Cl)c2)cc1F", "metric.name": "growth inhibition", "reading": 89}
{"compound": "O=C(NC1CCC(CN2CCC(c3c[nH]c4ccccc34)CC2)CC1)c1cc(-c2ccc(F)cc2F)ccc1O (configuration not stated)", "metric.name": "growth inhibition", "reading": 101}
{"compound": "CCCCCc1cc(O)c2c(c1)OC(C)(C)CC2C1=CCN(Cc2ccccc2)CC1 (configuration not stated)", "metric.name": "growth inhibition", "reading": 99}
{"compound": "CC[C@H]1CN2CC[C@H]1C[C@H]2[C@H](O)c1cc(Cl)nc2ccc(OC)cc12", "metric.name": "growth inhibition", "reading": 101}
{"compound": "Cc1nc(C)c(-c2ccc(Oc3ccc(OC(F)(F)F)cc3)cc2)c(OC(=O)N(CCNC(C)C)C(C)C)c1Br", "metric.name": "growth inhibition", "reading": 98}
{"compound": "CC(C)CCNC(=O)c1cc(C(=O)c2cc(F)ccc2O)cn(CCC(C)C)c1=O", "metric.name": "growth inhibition", "reading": 100}
{"compound": "COC(=O)c1ccc(CC(C)NCC(O)c2cccc3ccccc23)cc1 (configuration not stated)", "metric.name": "growth inhibition", "reading": 96}
{"compound": "O=C(CNC1CCCCC1)c1ccc(O)c(O)c1", "metric.name": "growth inhibition", "reading": 102}
{"compound": "CC[C@H]1CN2CC[C@@H]1C[C@H]2[C@H](O)c1cc(N2CCOCC2)nc2ccc(OC)cc12", "metric.name": "growth inhibition", "reading": 99}
{"compound": "CC[C@H]1CN2CCc3cc(OC)c(OC)cc3[C@@H]2C[C@@H]1C[C@H]1NCCc2c1cc(OC)c(O)c2Cl", "metric.name": "growth inhibition", "reading": 100}
{"compound": "CCC(C)CN1CCC(N(C)c2cc(NC(=O)c3cccc(C)c3)ccn2)CC1 (configuration not stated)", "metric.name": "growth inhibition", "reading": 93}
{"compound": "COc1cc(C=CC(=O)N2CCC(CN3CCC(c4c[nH]c5ccccc45)CC3)CC2)ccc1O", "metric.name": "growth inhibition", "reading": 82}
{"compound": "O=C(/C=C/c1ccc(Cl)c(Cl)c1)NCCC1CCC(N2CCC(c3c[nH]c4ccccc34)CC2)CC1 (configuration not stated)", "metric.name": "growth inhibition", "reading": 102}
{"compound": "O=C(CC1CCCC1)N(CC1CCN(Cc2ccc(C(F)(F)F)cc2)CC1)c1ccc(N2CCOCC2)c(F)c1", "metric.name": "growth inhibition", "reading": 92}
{"compound": "COc1coc(C(=O)NC2CCN(CC3(c4ccc(Cl)cc4)CCC3)CC2)c1OC", "metric.name": "growth inhibition", "reading": 96}
{"compound": "COCCNCc1ccc(-c2ccc(CN(C(=O)Nc3ccccc3)C3CCN(Cc4ccccc4)CC3)cc2)cc1", "metric.name": "growth inhibition", "reading": 98}
{"compound": "CC[C@H]1CN2CCc3cc(OC)c(OC)cc3[C@@H]2C[C@@H]1C[C@H]1NCCc2c1cc(OC)c(O)c2I", "metric.name": "growth inhibition", "reading": 101}
{"compound": "CS(=O)(=O)Nc1ccc2[nH]cc(C3CCN(CC4CCC(NC(=O)/C=C/c5ccc(Cl)c(Cl)c5)CC4)CC3)c2c1 (configuration not stated)", "metric.name": "growth inhibition", "reading": 100}
{"compound": "CC[C@H]1CN2CC[C@H]1C[C@H]2[C@H](O)c1cc(-c2ccc(SC)cc2)nc2ccc(OC)cc12", "metric.name": "growth inhibition", "reading": 98}
{"compound": "COC(=O)c1ccc(CC(C)NCC(O)c2cccc(C(F)(F)F)c2)cc1C (configuration not stated)", "metric.name": "growth inhibition", "reading": 93}

* * *

assay.name: sensitizers of A549 cells to miR-34 induction, primary screen, imaging, A549 dox-inducible miR-34, nuclei and caspase counts (AID 1347080)
test.parameters: A549 miR-34 inducible, Hoechst nuclei count, 48 h; measured here: total cells without miR-34 induction

{"compound": "CCN1C[C@]2(COC)CC[C@H](O)[C@]34C1[C@H](C[C@H]23)[C@@]1(O)C[C@H](OC)[C@H]2C[C@@H]4[C@@H]1[C@H]2OC(C)=O", "cell count": 10200}
{"compound": "C[N+]1(C)C2CCC1CC(OC(=O)c1c[nH]c3ccccc13)C2 (stereo not given)", "cell count": 9840}
{"compound": "C[C@]12CCC(O)CC1=CCC1C2CC[C@@]2(C)C1CC[C@]2(C)O (stereo not given in full)", "cell count": 10100}
{"compound": "Cc1cc([C@@H]2CCCN2C)on1", "cell count": 10200}
{"compound": "CCCCCCCCCC(=O)OC[C@H](COP(=O)([O-])OCC[N+](C)(C)C)OC(=O)CCCCCCCCC", "cell count": 5860}

* * *

Here, each record is paired with measured activity remaining data.
System: Aerobactin synthetase IucA (Klebsiella pneumoniae hvKP1)
assay.name: Biochemical IucA enzyme inhibition primary screen of the Spectrum library (AID 1346200);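 also: 100% = wells without compound and 0% = wells lacking enzyme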
test.parameters: malachite green pyrophosphate, A620, at 8 µM, stronger effect = lower value

{"compound": "CCC(=O)OCC(=O)C1(OC(=O)CC)C(C)CC2C3CCC4=CC(=O)C=CC4(C)C3(Cl)C(O)CC21C (centres undefined)", "unit.descriptor": "%", "activity remaining": 119}
{"compound": "[N-]=[N+]=CC(=O)OCC(N)C(=O)O (centres undefined)", "unit.descriptor": "%", "activity remaining": 105}
{"compound": "CO[C@@]1(NC(=O)CSCC#N)C(=O)N2C(C(=O)O)=C(CSc3nnnn3C)CSC21 (some centres undefined)", "unit.descriptor": "%", "activity remaining": 98.6}
{"compound": "CCN(CCO)CCCC(C)Nc1ccnc2cc(Cl)ccc12 (centres undefined)", "unit.descriptor": "%", "activity remaining": 109}
{"compound": "CC(=O)Oc1ccc2c(c1)CCC1C2CC[C@@]2(C)C1C[C@@H](OC(C)=O)[C@@H]2OC(C)=O (some centres undefined)", "unit.descriptor": "%", "activity remaining": 97.3}
{"compound": "O=C(/C=C/c1ccccc1)c1ccc(O)cc1", "unit.descriptor": "%", "activity remaining": 95.4}
{"compound": "CC(=O)O[C@H]1CC2CCC3C(CC[C@@]4(C)C3C[C@H]([N+]3(C)CCCCC3)[C@@H]4OC(C)=O)[C@@]2(C)C[C@@H]1[N+]1(C)CCCCC1 (some centres undefined)", "unit.descriptor": "%", "activity remaining": 124}
{"compound": "OCC(S)CS (centres undefined)", "unit.descriptor": "%", "activity remaining": 91.4}
{"compound": "O=c1[nH]cc(F)c(=O)[nH]1", "unit.descriptor": "%", "activity remaining": 96.1}
{"compound": "CC(=O)O[C@@H]1CC2C(C)(C)C(=O)C=C[C@]2(C)C2CC[C@@]3(C)[C@H](c4ccoc4)OC(=O)[C@H]4O[C@]43[C@@]21C (some centres undefined)", "unit.descriptor": "%", "activity remaining": 104}
{"compound": "Nc1ncn([C@@H]2O[C@H](CO)[C@@H](O)[C@H]2O)c(=O)n1", "unit.descriptor": "%", "activity remaining": 104}
{"compound": "CCCNC(C)C(=O)Nc1ccccc1C (centres undefined)", "unit.descriptor": "%", "activity remaining": 82}
{"compound": "S=c1[nH]c2ccccc2s1", "unit.descriptor": "%", "activity remaining": 99.3}
{"compound": "C=C1c2cccc(O)c2C(O)=C2C(=O)[C@]3(O)C(O)=C(C(N)=O)C(=O)[C@@H](N(C)C)[C@@H]3[C@@H](O)[C@H]12", "unit.descriptor": "%", "activity remaining": 111}
